Molecular target: hGLP-1R (Homo sapiens, UniProt P43220)
Sequence (P43220 24-463): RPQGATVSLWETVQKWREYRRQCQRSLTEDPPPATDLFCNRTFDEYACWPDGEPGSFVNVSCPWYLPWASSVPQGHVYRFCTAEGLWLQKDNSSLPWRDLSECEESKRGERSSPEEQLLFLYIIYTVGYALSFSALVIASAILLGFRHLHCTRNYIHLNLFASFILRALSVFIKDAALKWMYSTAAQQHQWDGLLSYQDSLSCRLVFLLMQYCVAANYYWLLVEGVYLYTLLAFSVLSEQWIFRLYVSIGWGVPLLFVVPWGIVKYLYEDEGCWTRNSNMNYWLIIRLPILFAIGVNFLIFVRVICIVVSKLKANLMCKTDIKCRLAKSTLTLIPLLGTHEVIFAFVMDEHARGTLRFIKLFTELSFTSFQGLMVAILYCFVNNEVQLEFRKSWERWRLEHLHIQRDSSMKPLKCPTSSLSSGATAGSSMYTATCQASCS
Experiment: Functional cAMP activity in the presence of 1% HSA
Assay type: cell-based
Settings: read-out: cAMP Rel EC50, hGLP-1R
Starred links: 1 amine or outer side, 2 acyl side, 3 side chain; linkers in the order of their positions; H or OH if unused. Non-standard residues stand in square brackets, D forms with d. Groups on a side chain read outwards from the residue. *: point of attachment. C20 diacid = O=C(O)CCCCCCCCCCCCCCCCCCC(=O)*; C18 diacid = O=C(O)CCCCCCCCCCCCCCCCC(=O)*; γGlu = O=C(O)[C@H](CCC(=O)[*:2])N[*:1]; αMeY = C[C@](N)(Cc1ccc(O)cc1)C(=O)O; 4Pal = N[C@@H](Cc1ccncc1)C(=O)O; αMeL = CC(C)C[C@](C)(N)C(=O)O; Orn = NCCC[C@H](N)C(=O)O; AEEA = NCCOCCOCC(=O)O; Aib = CC(C)(N)C(=O)O
Below, each of the substances is paired with its reported pEC50 value.
Here pEC50 is given on a logarithmic scale as minus log10 of the concentration in mol/L.

substance="H-Y[Aib]QGTFTSD[4Pal]SQ[αMeL]LD[Orn]K([AEEA-γGlu-C18 diacid])AQ[Aib]AFIE[αMeY]LLEGGPSSGAPPPSGS-NH2 [Example 911]" measurement_target="hGLP-1R (Homo sapiens, UniProt P43220)" result_type=pEC50 endpoint_value=6.59

## Input What value of pEC50 has been reported for the following substance? H-Y[Aib]QGTFTSDYSI[αMeL]LDKQAAK([AEEA-AEEA-γGlu-C20 diacid])QFVEWLIA[Aib]GPSSGEPPPSEG-NH2 [Example 326]
## Output 6.76

## Input What value of pEC50 has been reported for the following substance? H-Y[Aib]QGTFTSDFS[Orn][αMeL]LDKK([AEEA-AEEA-γGlu-C18 diacid])AQ[Aib]AFIEWLLEGGHSSGAPPPSGE-NH2 [Example 169]
## Output 6.67
